Origin of values: ChEMBL document CHEMBL3046583

Recorded measurements of Activity, one per entry
system: Helicoverpa armigera; assay: Stomach toxicity against third-instars Helicoverpa armigera assessed as larvicidal activity at 5.5 mg/kg at 25 +/- 1 degC after 3 days; type: functional
REPORTED_PROPERTY: Activity (%)

compound="CCc1nn(C)c(C2=NC(c3ccc(C(C)(C)C)cc3)CO2)c1Cl (centres undefined)" test_result=40
compound="CCc1nn(C)c(C(=O)NC(CCl)c2ccc(C(C)(C)C)cc2)c1Cl (centres undefined)" test_result=0
compound="CCCCCOc1ccc(C2COC(c3c(Cl)c(CC)nn3C)=N2)cc1 (centres undefined)" test_result=30
compound="CCc1cc(C2=NC(c3ccc(Cl)cc3)CO2)n(C)n1 (centres undefined)" test_result=0
compound="CCCCCOc1ccc(C(CCl)NC(=O)c2c(Cl)c(CC)nn2C)cc1 (centres undefined)" test_result=10
compound=CCc1nn(C)c(C(=O)NCc2ccc(Oc3ccc(C)cc3)cc2)c1Cl test_result=70
compound="CCc1nn(C)c(C(=O)NC(CO)c2ccc(Oc3ccccc3)cc2)c1Cl (centres undefined)" test_result=0
compound="CCc1cc(C(=O)NC(CO)c2ccc(C(C)(C)C)cc2)n(C)n1 (centres undefined)" test_result=0
compound="CCc1nn(C)c(C2=NC(c3ccc(Cl)cc3)CO2)c1Cl (centres undefined)" test_result=60
compound="CCc1cc(C(=O)NC(CCl)c2ccc(C(C)(C)C)cc2)n(C)n1 (centres undefined)" test_result=60
compound="CCc1nn(C)c(C2=NC(c3ccc(Oc4ccccc4)cc3)CO2)c1Cl (centres undefined)" test_result=60
compound="CCCCCOc1ccc(C(CO)NC(=O)c2cc(CC)nn2C)cc1 (centres undefined)" test_result=0
compound="CCc1nn(C)c(C(=O)NC(CCl)c2ccc(Cl)cc2)c1Cl (centres undefined)" test_result=40
compound="CCc1nn(C)c(C(=O)NC(CCl)c2ccc(Oc3ccccc3)cc2)c1Cl (centres undefined)" test_result=40

* * *

tested on: Tetranychus cinnabarinus; assay: Acaricidal activity against Tetranychus cinnabarinus (carmine spider mite) eggs at 200 mg/kg by leaf dip method; assay type: functional, Egg
Field: label. Allowed values: 1 (Activity < 40%) or 0 (Activity >= 40%).

compound="CCc1cc(C2=NC(c3ccc(C(C)(C)C)cc3)CO2)n(C)n1 (stereo unspecified)" label_value=0
compound="CCc1nn(C)c(C(=O)NC(CO)c2ccc(Cl)cc2)c1Cl (stereo unspecified)" label_value=1
compound="CCCCCOc1ccc(C(CO)NC(=O)c2c(Cl)c(CC)nn2C)cc1 (stereo unspecified)" label_value=1
compound="CCc1nn(C)c(C(=O)NC(CCl)c2ccc(Cl)cc2)c1Cl (stereo unspecified)" label_value=1
compound="CCCCCOc1ccc(C(CO)NC(=O)c2cc(CC)nn2C)cc1 (stereo unspecified)" label_value=1
compound="CCc1cc(C(=O)NC(CCl)c2ccc(Cl)cc2)n(C)n1 (stereo unspecified)" label_value=1
compound="CCc1nn(C)c(C2=NC(c3ccc(C(C)(C)C)cc3)CO2)c1Cl (stereo unspecified)" label_value=1
compound="CCc1nn(C)c(C(=O)NC(CO)c2ccc(Oc3ccccc3)cc2)c1Cl (stereo unspecified)" label_value=1
compound="CCc1cc(C2=NC(c3ccc(Cl)cc3)CO2)n(C)n1 (stereo unspecified)" label_value=0

* * *

system: Helicoverpa armigera; experiment: Stomach toxicity against third-instars Helicoverpa armigera assessed as larvicidal activity at 110 mg/kg at 25 +/- 1 degC after 3 days; assay type: functional
REPORTED_PROPERTY: Activity (%)

molecule="CCCCCOc1ccc(C(CCl)NC(=O)c2cc(CC)nn2C)cc1 (stereo not drawn)" reported_property=Activity measurement_units=% test_result=100
molecule="CCc1nn(C)c(C(=O)NC(CO)c2ccc(Oc3ccccc3)cc2)c1Cl (stereo not drawn)" reported_property=Activity measurement_units=% test_result=100
molecule="CCc1nn(C)c(C(=O)NC(CO)c2ccc(C(C)(C)C)cc2)c1Cl (stereo not drawn)" reported_property=Activity measurement_units=% test_result=100
